Data origin: PubChem BioAssay (NCI)

# Test system: 786-0 renal
# ASSAY_NOTES: NCI tumour cell line growth inhibition, 48 h
PARAMETER: GI50

// worked examples, GI50 included
INSERT INTO assay_data (compound, meas_value) VALUES
  ('CCC[CH2][Sn]([CH2]CCC)([S]c1cccc2cccnc12)[S]c1cccc2cccnc12', '227 nM'),
  ('Cc1ccnc2c1ccc1c(C)ccnc12', '327 nM'),
  ('COc1cccc(-c2cc(-c3cccc(NS(C)(=O)=O)c3)nc(N)c2C#N)c1O', '375 nM'),
  ('COC(=O)/C=C1\S/C(=N\NC(=O)c2cc3ccc2/C=C\c2ccc(cc2)/C=C\3)N(c2ccccc2)C1=O', '2000 nM'),
  ('OCc1cc2ccccc2c2c3c(ccc12)OCO3', '42300 nM');

Any idea what GI50 was measured for COc1ccc2c(c1)sc1nc(-c3ccccc3)c(-c3cccc4ccccc34)n12 ? 848 nM

Now the compound Nc1c(C(=O)c2cccc(CCS(N)(=O)=O)c2)cnn1-c1ccc(F)cc1 > 25000 nM

Now the compound COC([CH2][Hg][n]1cnc2c1c(=O)n(C)c(=O)n2C)CN1C(=O)c2ccccc2S1(=O)=O (configuration not stated) > 100000 nM

Now the compound Cn1cc(C2=C(c3c4n(c5ccccc35)CCCCC4)C(=O)NC2=O)c2ccccc21 7760 nM

Now the compound CC(=O)OC1OC([C@@H]2c3cccc(O)c3C(=O)c3c(O)cc(C)cc32)C(O)C(O)C1O (some centres not stated) 130 nM

Now the compound Cc1ccc(NC(=O)Nc2ccc(-c3cccnc3)cc2N2CCC(CO)CC2)cc1 2580 nM

Now the compound COc1cc2c(cc1OCCCCN1CCN(CC(=O)Nc3ccc(Cl)cc3C(=O)c3ccccc3Cl)CC1)N=CC1CCCN1C2=O (configuration not stated) 205 nM
